- assay: Cytotoxicity against human C8166 cells after 3 days by MTT assay
- Format: cell-based
endpoint label: CC50 at 72 h (µM)
Write down the numeric answer in µM and omit the unit.

Notebook: "NCCCNc1ccccc1[N+](=O)[O-]" , CC50 at 72 h read as 11.4

Quick note, CC50 at 72 h for "Cc1ccc(NCCCN)c([N+](=O)[O-])c1" landed at 17.7

CC50 at 72 h reading for "NCCCNc1ccc(CO)cc1[N+](=O)[O-]" : 21.8

Memo: "COc1ccc(NCCCN)c([N+](=O)[O-])c1" , reported CC50 at 72 h: 7.87

Record "Cc1ccc([N+](=O)[O-])c(OCCCN)c1" , field CC50 at 72 h: 8.05

Consider "Cc1ccc(OCCCN)c([N+](=O)[O-])c1" . Its measured CC50 at 72 h is 13.8

----------
What pIC50 was measured for each of the following?
- assay system: Histone acetyltransferase KAT2B (Homo sapiens, UniProt Q92831)
- Sequence (Q92831 whole entry): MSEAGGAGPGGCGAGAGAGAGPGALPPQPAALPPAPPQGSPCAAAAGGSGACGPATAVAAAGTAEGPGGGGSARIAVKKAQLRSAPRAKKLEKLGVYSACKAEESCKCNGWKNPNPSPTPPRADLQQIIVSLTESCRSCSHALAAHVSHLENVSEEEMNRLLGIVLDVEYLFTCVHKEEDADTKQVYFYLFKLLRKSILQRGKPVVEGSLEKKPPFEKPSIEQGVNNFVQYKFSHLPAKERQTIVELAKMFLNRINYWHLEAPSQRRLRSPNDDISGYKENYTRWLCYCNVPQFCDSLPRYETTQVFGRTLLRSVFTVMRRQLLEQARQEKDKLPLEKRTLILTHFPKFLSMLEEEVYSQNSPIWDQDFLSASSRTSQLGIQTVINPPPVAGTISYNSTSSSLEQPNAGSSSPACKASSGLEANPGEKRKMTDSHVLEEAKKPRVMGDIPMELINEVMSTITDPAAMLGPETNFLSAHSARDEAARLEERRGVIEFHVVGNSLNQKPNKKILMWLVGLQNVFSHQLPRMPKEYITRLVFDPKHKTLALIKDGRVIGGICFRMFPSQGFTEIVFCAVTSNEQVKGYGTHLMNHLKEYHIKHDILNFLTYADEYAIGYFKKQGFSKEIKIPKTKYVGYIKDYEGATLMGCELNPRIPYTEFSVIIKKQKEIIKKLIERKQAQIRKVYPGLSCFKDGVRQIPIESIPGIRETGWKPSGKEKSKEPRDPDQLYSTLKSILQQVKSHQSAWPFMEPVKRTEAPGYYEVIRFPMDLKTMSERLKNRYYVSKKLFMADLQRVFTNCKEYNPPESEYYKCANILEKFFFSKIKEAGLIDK
- assay: Inhibition of PCAF bromodomain (unknown origin) assessed as inhibition of PCAF BRD tat-AcK50 peptide interaction by ELISA
Keep it numeric: pIC50 is minus log10 of the concentration in mol/L.

Per the records, this compound ( "Cc1ccc([N+](=O)[O-])cc1NCCCN" ) has pIC50 equal to 4.11

Data point: "NCCCOc1ccccc1[N+](=O)[O-]" ; pIC50 = 3.90

The recorded pIC50 for entry "COc1ccc(OCCCN)c([N+](=O)[O-])c1" equals 3.99

----------
- assay: Cytotoxicity against human C8166 cells after 3 days by MTT assay
- Assay type: cell-based
What CC50 at 72 h was measured for each of the following?
Response body: numeric value in µM, unit text excluded.

The reported value for "NCCCOc1ccc(Cl)cc1[N+](=O)[O-]" in terms of CC50 at 72 h is 6.27

Data point: "NCCCNc1ccc(C(F)(F)F)cc1[N+](=O)[O-]" ; CC50 at 72 h = 47.7

Lookup result for "CCc1ccc(NCCCN)c([N+](=O)[O-])c1" ; measured CC50 at 72 h: 10.3

GET /value?item= "NCCCNc1ccc(N)cc1[N+](=O)[O-]" &field=CC50 at 72 h returns 7.97

Data point: "CCOP(=O)(Cc1ccc(NCCCN)c([N+](=O)[O-])c1)OCC" ; CC50 at 72 h = 174
